Target: UniProtKB P29597
Sequence (P29597 whole entry): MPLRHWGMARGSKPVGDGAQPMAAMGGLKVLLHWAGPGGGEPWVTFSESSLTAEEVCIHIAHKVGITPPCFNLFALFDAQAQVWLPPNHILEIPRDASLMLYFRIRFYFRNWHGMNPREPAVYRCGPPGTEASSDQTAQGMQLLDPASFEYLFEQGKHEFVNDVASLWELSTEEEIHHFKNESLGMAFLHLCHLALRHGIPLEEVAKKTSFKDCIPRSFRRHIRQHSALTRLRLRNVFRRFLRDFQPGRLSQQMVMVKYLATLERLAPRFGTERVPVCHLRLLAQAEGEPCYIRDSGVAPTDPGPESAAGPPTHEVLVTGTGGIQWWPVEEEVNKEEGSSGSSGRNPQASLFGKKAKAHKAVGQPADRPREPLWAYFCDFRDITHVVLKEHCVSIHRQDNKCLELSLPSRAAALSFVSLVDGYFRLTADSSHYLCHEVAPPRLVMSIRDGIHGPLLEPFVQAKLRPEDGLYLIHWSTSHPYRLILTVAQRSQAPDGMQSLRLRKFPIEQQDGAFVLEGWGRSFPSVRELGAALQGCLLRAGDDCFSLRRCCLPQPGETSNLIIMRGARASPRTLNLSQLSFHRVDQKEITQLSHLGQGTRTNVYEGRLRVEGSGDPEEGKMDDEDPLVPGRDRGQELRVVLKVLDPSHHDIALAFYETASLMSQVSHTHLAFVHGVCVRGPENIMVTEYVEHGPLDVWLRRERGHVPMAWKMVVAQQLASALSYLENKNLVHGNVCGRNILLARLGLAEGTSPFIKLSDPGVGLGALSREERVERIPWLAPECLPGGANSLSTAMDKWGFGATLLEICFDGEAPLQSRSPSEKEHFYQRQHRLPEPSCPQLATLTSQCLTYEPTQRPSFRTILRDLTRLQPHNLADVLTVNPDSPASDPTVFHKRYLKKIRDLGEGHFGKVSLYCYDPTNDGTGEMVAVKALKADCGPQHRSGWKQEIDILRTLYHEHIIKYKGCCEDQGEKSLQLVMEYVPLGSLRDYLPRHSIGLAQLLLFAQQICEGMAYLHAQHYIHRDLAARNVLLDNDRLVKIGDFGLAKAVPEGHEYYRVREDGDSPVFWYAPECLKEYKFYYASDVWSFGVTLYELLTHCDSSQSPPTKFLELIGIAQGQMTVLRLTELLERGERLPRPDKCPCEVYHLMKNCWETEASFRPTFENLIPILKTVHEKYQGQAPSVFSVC
Measured IC50 values are reported for all entries that follow.
Answer with a number only, understood to be in µM.

CN(c1nc(Nc2cnn(C)c2)ncc1Cl)C1CCN(c2ccc(C#N)cn2)CC1 [Ex. 5]: 0.022

Pending molecule:
Incoming: Query (molecule): Cc1c2ccc(Nc3ncc(Cl)c(NC4CCN(c5ccc(C#N)cn5)CC4)n3)cc2nn1C [Ex. 4] ; field requested: IC50
Outgoing: 0.002

====

Experiment: Pharmacokinetics after intravenous and oral administration in rats
Type: in vivo
Conditions: rat, plasma, iv dosing, 1 mg/kg
Recorded half-life split into classes b0: < 30 min; b1: ≥ 30 min and < 60 min; b2: ≥ 60 min

CCC1CN(c2ccc(C#N)nn2)CCC1Nc1ccnc(Nc2cc(C)n(C)n2)n1 (stereo not drawn): b1
Cc1c2ccc(Nc3ncc(Cl)c(NC4CCN(c5ccc(C#N)cn5)CC4)n3)cc2nn1C: b2

Incoming: Class (by measured half-life) for Cc1nn(C)cc1Nc1ncc(Cl)c(NC2CCN(c3ccc(C#N)nn3)CC2)n1
Outgoing: b0

Incoming: Next up: CCC1CN(c2ccc(C#N)nn2)CCC1Nc1nc(Nc2ccc3c(C)n(C)nc3c2)ncc1Cl (stereo not drawn)
Outgoing: b1

Incoming: Next up: Cc1nn(C)cc1Nc1ncc(Cl)c(NC2CCN(c3ccc(C#N)cn3)CC2)n1
Outgoing: b1

====

Test: Pharmacokinetics after intravenous and oral administration in rats
Format: in vivo
Conditions: rat, plasma, iv dosing, 1 mg/kg, read-out: Vss
Protocol: The LC/MS/MS system used in the analysis consists of an Agilent 1200 Series vacuum degasser, binary pump, well-plate autosampler, thermostatted column compartment, the Agilent G6430 Triple Quadrupole Mass Spectrometer with an electrosprayionization (ESI) source. Quantitative analysis was carried out using MRM mode. The parameters for MRM transitions are in the Table A. […] The compounds disclosed herein are assessed in pharmacokinetic studies in mice, rats, dogs or monkeys. […]
Measured Vd values are reported for all entries that follow.
Answer with a number only, understood to be in L/kg.

CCC1CN(c2ccc(C#N)cn2)CCC1N(C)c1nc(Nc2ccc3c(C)n(C)nc3c2)ncc1Cl (stereo not shown): 1.9
CCC1CN(c2ccc(C#N)nn2)CCC1N(C)c1nc(Nc2ccc3c(C)n(C)nc3c2)ncc1Cl (stereo not shown): 1.4
CCC1CN(c2ccc(C#N)cn2)CCC1Nc1nc(Nc2cc(C)n(C)n2)ncc1Cl (stereo not shown): 0.81

Pending compound:
Incoming: Query (compound): CN(c1nc(Nc2cnn(C)c2)ncc1Cl)C1CCN(c2ccc(C#N)cn2)CC1 ; field requested: Vd
Outgoing: 0.67

====

Assay: Compound stability in human liver microsomes
Assay type: in vitro ADME
Details: pH 7.4, in vivo CLint extrapolated
Measured log10 of CLint scaled values are reported for all entries that follow.
Log scale reminder: CLint scaled in mL/min/kg, then log10 taken.

Below: 5 compounds and their reported log10 of CLint scaled.
Cc1nn(C)cc1Nc1ncc(Cl)c(NC2CCN(c3ccc(C#N)cn3)CC2)n1 [Ex. 10]: 2.50
CCC1CN(c2ccc(C#N)cn2)CCC1Nc1nc(Nc2cc(C)n(C)n2)ncc1Cl (stereo not drawn) [Ex. 21]: 1.99
Cc1c2ccc(Nc3ncc(Cl)c(N(C)C4CCN(c5ccc(C#N)nn5)CC4)n3)cc2nn1C [Ex. 24]: 2.43
CCC1CN(c2ccc(C#N)cn2)CCC1N(C)c1nc(Nc2cc(C)n(C)n2)ncc1Cl (stereo not drawn) [Ex. 18]: 1.88
Cc1cnc(Nc2cnn(C)c2)nc1N(C)C1CCN(c2ccc(C#N)cn2)CC1 [Ex. 6]: 2.05

Pending compound:
Incoming: Query (compound): Cc1cc(Nc2ncc(Cl)c(NC3CCN(c4ccc(C#N)cn4)CC3)n2)nn1C [Ex. 2] ; field requested: log10 of CLint scaled
Outgoing: 1.68

====

Target: FLT3 (h) (Homo sapiens)
Sequence (P36888 27-993): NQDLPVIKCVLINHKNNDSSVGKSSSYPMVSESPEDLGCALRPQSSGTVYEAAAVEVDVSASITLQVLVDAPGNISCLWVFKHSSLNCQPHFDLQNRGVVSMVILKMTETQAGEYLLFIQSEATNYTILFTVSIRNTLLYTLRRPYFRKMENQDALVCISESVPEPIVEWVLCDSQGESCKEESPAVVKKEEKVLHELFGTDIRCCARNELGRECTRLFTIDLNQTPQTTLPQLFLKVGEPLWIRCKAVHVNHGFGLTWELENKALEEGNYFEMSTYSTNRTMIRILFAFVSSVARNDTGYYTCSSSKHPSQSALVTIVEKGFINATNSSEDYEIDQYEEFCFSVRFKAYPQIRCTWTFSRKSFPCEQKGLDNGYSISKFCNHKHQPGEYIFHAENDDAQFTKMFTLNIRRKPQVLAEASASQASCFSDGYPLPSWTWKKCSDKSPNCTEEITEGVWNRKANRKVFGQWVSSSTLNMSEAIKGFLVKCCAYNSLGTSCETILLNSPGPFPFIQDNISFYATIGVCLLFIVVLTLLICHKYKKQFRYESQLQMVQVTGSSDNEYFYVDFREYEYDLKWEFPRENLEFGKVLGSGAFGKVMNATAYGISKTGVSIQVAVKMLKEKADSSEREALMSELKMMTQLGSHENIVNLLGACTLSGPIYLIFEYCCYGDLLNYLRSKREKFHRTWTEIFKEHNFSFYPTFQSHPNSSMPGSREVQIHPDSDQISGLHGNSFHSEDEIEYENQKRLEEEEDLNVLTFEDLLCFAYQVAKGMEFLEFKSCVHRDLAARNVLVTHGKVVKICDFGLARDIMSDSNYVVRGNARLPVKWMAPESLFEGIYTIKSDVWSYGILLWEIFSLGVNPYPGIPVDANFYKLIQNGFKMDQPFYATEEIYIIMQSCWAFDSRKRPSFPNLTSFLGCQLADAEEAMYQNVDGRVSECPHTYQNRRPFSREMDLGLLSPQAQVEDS
Measured pIC50 values are reported for all entries that follow.
Conceptually, pIC50 converts a concentration in mol/L into minus its log10.

Cn1cc(Nc2ncc(Cl)c(NC3CCN(c4ccc(C#N)cn4)CC3)n2)cn1: 8.22

Incoming: Query (compound): Cc1nn(C)cc1Nc1ncc(Cl)c(NC2CCN(c3ccc(C#N)nn3)CC2)n1 ; field requested: pIC50
Outgoing: 7.68

Incoming: Next up: Cc1c2ccc(Nc3ncc(Cl)c(NC4CCN(c5ccc(C#N)nn5)CC4)n3)cc2nn1C
Outgoing: 8.40

====

Biological target: JAK1 (h) (Homo sapiens, UniProt P23458)
Construct: purchased Millipore UK Ltd (contract assay service)
Sequence (P23458 whole entry): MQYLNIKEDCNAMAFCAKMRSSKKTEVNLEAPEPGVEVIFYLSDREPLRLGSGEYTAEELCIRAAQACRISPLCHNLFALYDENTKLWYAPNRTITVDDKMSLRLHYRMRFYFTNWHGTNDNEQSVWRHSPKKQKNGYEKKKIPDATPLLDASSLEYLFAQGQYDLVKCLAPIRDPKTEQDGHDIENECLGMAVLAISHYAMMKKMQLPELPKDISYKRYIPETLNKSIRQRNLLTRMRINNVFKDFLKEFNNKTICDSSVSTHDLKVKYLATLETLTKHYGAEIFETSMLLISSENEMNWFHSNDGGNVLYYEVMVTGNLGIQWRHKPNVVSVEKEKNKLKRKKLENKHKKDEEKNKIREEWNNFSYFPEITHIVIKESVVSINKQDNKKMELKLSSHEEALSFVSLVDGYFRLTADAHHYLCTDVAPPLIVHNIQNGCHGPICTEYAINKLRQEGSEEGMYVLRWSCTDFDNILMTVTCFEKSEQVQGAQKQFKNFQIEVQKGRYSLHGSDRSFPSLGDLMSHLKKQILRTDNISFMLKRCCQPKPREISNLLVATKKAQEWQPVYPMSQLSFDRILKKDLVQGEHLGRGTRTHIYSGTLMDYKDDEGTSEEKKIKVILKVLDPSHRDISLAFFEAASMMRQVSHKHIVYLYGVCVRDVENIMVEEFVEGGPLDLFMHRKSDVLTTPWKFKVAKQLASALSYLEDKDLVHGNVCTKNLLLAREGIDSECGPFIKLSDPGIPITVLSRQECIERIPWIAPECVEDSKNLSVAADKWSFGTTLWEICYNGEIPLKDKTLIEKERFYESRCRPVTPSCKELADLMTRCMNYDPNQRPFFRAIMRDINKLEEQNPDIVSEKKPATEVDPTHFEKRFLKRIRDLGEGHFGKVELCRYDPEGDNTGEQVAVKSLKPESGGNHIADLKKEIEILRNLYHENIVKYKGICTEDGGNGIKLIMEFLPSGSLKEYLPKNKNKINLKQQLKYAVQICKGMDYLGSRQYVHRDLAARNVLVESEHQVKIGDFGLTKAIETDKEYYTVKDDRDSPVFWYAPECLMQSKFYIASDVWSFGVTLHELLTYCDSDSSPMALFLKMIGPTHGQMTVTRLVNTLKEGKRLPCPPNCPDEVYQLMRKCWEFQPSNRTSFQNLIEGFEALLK
Test: JAK1 (h) kinase assay
Type: biochemical
Text: The above assay procedure can be used to determine the IC50 for inhibition and/or the inhibition constant, Ki. The IC50 is defined as the concentration of compound required to reduce the enzyme activity by 50% under the condition of the assay. […]
Measured IC50 values are reported for all entries that follow.
Answer with a number only, understood to be in nM.

Cn1nc(Nc2ncc(Cl)c(NC3CCN(c4ccc(C#N)cn4)CC3)n2)cc1C(C)(C)O: 1
CCC1CN(c2ccc(C#N)nn2)CCC1Nc1nc(Nc2cc(C)n(C)n2)ncc1Cl (centres unmarked): 0.6

Pending compound:
Incoming: Record lookup: for JAK1 (h) (Homo sapiens, UniProt P23458), what IC50 belongs to Cc1cc(Nc2ncc(Cl)c(NC3CCN(c4ccc(C#N)cn4)CC3)n2)nn1C ?
Outgoing: 0.6

====

Measured AUC(0-t) values are reported for all entries that follow.
Assay: Pharmacokinetics after intravenous and oral administration in rats
Format: in vivo
Details: rat, plasma, iv dosing, 1 mg/kg
Answer with a number only, understood to be in ng·h/mL.

Cc1c2ccc(Nc3ncc(Cl)c(NC4CCN(c5ccc(C#N)nn5)CC4)n3)cc2nn1C: 1480
CCC1CN(c2ccc(C#N)cn2)CCC1Nc1nc(Nc2cn(C)nc2C)ncc1Cl (stereo not drawn): 722
Cc1nn(C)cc1Nc1ncc(Cl)c(N(C)C2CCN(c3ccc(C#N)cn3)CC2)n1: 273
Cn1cc(Nc2ncc(Cl)c(NC3CCN(c4ccc(C#N)cn4)CC3)n2)cn1: 4660
CN(c1nc(Nc2cnn(C)c2)ncc1Cl)C1CCN(c2ccc(C#N)cn2)CC1: 572
CCC1CN(c2ccc(C#N)cn2)CCC1N(C)c1nc(Nc2cc(C)n(C)n2)ncc1Cl (stereo not drawn): 663
Cc1c2ccc(Nc3ncc(Cl)c(NC4CCN(c5ccc(C#N)cn5)CC4)n3)cc2nn1C: 2340
Cn1cc2ccc(Nc3ncc(Cl)c(NC4CCN(c5ccc(C#N)nn5)CC4)n3)cc2n1: 1220
CN(c1nc(Nc2cnn(C)c2)ncc1Cl)C1CCN(c2ccc(C#N)cn2)C1 (stereo not drawn): 445
CCC1CN(c2ccc(C#N)cn2)CCC1N(C)c1nc(Nc2ccc3c(C)n(C)nc3c2)ncc1Cl (stereo not drawn): 881

Incoming: Query (compound): Cc1cc(Nc2ncc(Cl)c(NC3CCN(c4ccc(C#N)cn4)CC3)n2)n[nH]1 ; field requested: AUC(0-t)
Outgoing: 1060

Incoming: Next up: CCC1CN(c2ccc(C#N)nn2)CCC1Nc1nc(Nc2cc(C)n(C)n2)ncc1Cl (stereo not drawn)
Outgoing: 1930
